Entries and their IC50 FRNT* (ng/mL) against CHIKV
# target_system: Chikungunya virus (CHIKV), infectious virus of the focus reduction neutralization test (Chikungunya virus)
# assay_method_text: cell-based or functional assay
Returns: string containing the number followed by the unit.

Worked examples, 6 binders total:
# binder, IC50 FRNT* (ng/mL) against CHIKV
records = [
    ("CHKV-24 (antibody, V domains shown) VH: QVQLVESGGGVVQPGKSLRLSCAASGFTFRNYGMHWVRQAPGKGLDWVALISYDGTHKYYKDSLKGRFTISRDNFQNTVDLQINSLRPDDTAVYYCAKELATSGVVEPLDSWGQGTLVTVSS VL: EIVLTQSPGTLSLSPGERATLSCRASQSLVSSYFGWYQQKRGQSPRLLIYAASTRATGIPDRFSGSGSGTDFTLTISRLEPEDFAVYYCQQYGNTPFTFGGGTKVEIK", "4 ng/mL"),
    ("CHKV-50 (antibody, V domains shown) VH: EVQLVESGGGLVQPGRSLRLSCAASGFTFDDYAMHWVRQAPGKGLEWVSGISWNSGFIGYADSVKGRFTISRDNAKNSLYLQMNSLRAEDTALYYCAKDLGRAYSSGWYLFDYWGQGTLVTVSS VL: SYVLTQPPSVSVAPGKTARITCGGNNIGSKSVHWYQQLPGQAPVLVVYDDSDRPSGIPERFSGSNSGYTATLIISRVEAGDEADYYCQVWDSTSDHACVFGPGTKVTVL", "2270 ng/mL"),
    ("CHKV-35 (antibody, V domains shown) VH: EVQLVESGGGLVPPGGSLRVSCAASGFTLRSYVMAWVRQAPGKGLEWVSGISGDGDHTYYADSVKGRFTISRDNSKNTLYLQMHSLRAEDTALYYCVKDWGIRGIYYPSGMDVWGQGTTVIVSS VL: SLELAQPPSVSVSPGQTARITCSGDGLPQAYAYWYQKKPGQAPVPLIYKDTERPSGIPERFSGSSSGTTVTLTISGVQAEDEADYYCQSADSIGTNVIFGGGTKLTVL", "11 ng/mL"),
    ("CHKV-27 (antibody, V domains shown) VH: QVQLVQSGAEVKKPGASVKVSCKPSGYNFIDYAMHWVRQAPGQRLEWMGWINAANDNREYSQKFQGRVTLTRDTSATTAYMELSSLTFEDTAVYYCARDRGTMVRGVGGWFDPWGQGTLVTVSS VL: SYVLTQPPSVSVAPGETARITCGGNNIGSKSVHWYQQKPVQAPVVVVYDDSDRPSGIPERFSGSNSGNTATLTISRVEAGDEADYYCQVWDSSSNHPVFGGGTKVAVL", "17 ng/mL"),
    ("CHKV-32 (antibody, V domains shown) VH: QVQLVQSGAEVKKPGASVKVSCKASGYTFTTFAMHWVRQAPGQGLECMGWINTANGYTKYSQKFQGRVTITSDTSASTASMELSSLTSKDTAVYYCARVQDFGHYEGGYGYWGQGTLVTVSS VL: QSVLTQPPSVSGAPGQRVIISCTGSSSNIGAGYDVHWYQQLPGTAPKLLIYGNSYRPSGVPDRFSGSRSGTSASLAITGLQAEDEADYYCQSHDSSLNDFNVFGSGTKVTVL", "81 ng/mL"),
    ("CHKV-53 (antibody, V domains shown) VH: QLQLQESGPGLVKPSETLSLTCTVSGGSISSTSHYWGWIRQPPGKGLEWIGNIYYSGSTYYKSSLKSRVAISVDTSKNQFSLKLSSVTAADTAVYFCARVVVGGYYDNRGYYRGPPTPLYYFDYWGQGTLVTVSS VL: DIQMTQSPSSVSASVGDRVTISCRASPGISTWLAWYQQKPGKAPKLLIYAVSSLQSGVPSRFSGSGSGTDFTLTISSLQPEDFATYYCQQANSLSWTFGQGTKVEIK", "319 ng/mL"),
]

What measured IC50 FRNT* (ng/mL) against CHIKV goes with CHKV-48 (antibody, V domains shown) VH: QVQLQESGPGLVKPSQTLSLTCAVSGGSISSGGYSWSWIRQPPGKGLEWIGYIYYSGSTYYNPSLKSRLTISMDTSKNHFSLKLSSVTAADTAVYYCATDYCSSTSCNTGAPVNWGQGTLVTVSS VL: DIQLTQSPSFLSASVGDRVTITCRASQGISSYLAWYQQKPGKAPKLLINAASTLQSGVPSRFSGSGSGTEFTLTISSLQPEDFATYYCQQFNAYPYTFGQGTKLEIK ?
37 ng/mL
